Listed below: pIC50 values for each entry.
Target: Cyclin-dependent kinase 1/G2/mitotic-specific cyclin-B (Marthasterias glacialis, UniProt P15206+Q9DGD3)
Sequence (Q9DGD3 whole entry): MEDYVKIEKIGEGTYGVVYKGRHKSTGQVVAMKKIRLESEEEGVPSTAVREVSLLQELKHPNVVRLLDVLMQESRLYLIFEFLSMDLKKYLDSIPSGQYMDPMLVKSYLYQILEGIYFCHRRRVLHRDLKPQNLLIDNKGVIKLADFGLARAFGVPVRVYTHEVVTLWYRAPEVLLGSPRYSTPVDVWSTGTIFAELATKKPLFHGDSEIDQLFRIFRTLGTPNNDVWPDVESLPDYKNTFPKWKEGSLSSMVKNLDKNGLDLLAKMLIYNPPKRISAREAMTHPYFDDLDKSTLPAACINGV
Sequence (P15206 whole entry): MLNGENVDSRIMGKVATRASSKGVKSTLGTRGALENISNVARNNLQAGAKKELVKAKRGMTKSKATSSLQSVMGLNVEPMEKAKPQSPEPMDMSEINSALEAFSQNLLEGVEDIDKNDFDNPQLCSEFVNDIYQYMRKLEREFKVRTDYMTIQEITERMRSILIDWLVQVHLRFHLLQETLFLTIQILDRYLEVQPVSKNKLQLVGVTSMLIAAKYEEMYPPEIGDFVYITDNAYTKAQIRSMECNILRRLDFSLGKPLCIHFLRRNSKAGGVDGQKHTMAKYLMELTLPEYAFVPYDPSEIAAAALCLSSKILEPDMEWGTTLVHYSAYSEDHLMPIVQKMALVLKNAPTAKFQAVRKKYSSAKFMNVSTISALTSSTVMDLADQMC
Assay: Kinase Inhibition Assay
Settings: pH 7.2; 30 °C
pIC50: −log10 of the molar value.

Quick one: pIC50 for Nc1n[nH]c2nnc3c4ccccc4c4ccccc4c3c12 ?
< 4.30

Follow-up item: Nc1n[nH]c2nnc(-c3ccc(-c4ccccc4)cc3)c(-c3ccc(-c4ccccc4)cc3)c12
< 4.30

Follow-up item: Nc1n[nH]c2nncc(-c3ccccc3)c12
< 4.30
